Form: system (wild-type HIV-1 protease (Human immunodeficiency virus type 1 group M subtype B)), quantity (pIC50), values below.
pIC50: −log10 of the molar value.
measured_property: pIC50

>  <compound>
N=C1NC(c2ccccc2)(c2ccccc2)C(=O)N1Cc1cccc(C(=O)N2CCN(c3ccccc3Cl)CC2)c1

>  <measured_property>
pIC50

>  <experimental_value>
7.82

$$$$
>  <compound>
CN(C)C(=O)c1cccc(C2(c3ccc(F)cc3)NC(=N)N(Cc3cccc(C(=O)N4Cc5ccccc5C4)c3)C2=O)c1 (centres unmarked)

>  <measured_property>
pIC50

>  <experimental_value>
7.32

$$$$
>  <compound>
N#Cc1cccc(C2(c3ccc(F)cc3)NC(=N)N(Cc3cccc(C(=O)N4Cc5ccccc5C4)c3)C2=O)c1 (centres unmarked)

>  <measured_property>
pIC50

>  <experimental_value>
7.61

$$$$
>  <compound>
N=C1NC(c2ccccc2)(c2ccc(-c3ccc(F)cc3)cc2)C(=O)N1Cc1cccc(C(=O)N2Cc3nccnc3C2)c1 (centres unmarked)

>  <measured_property>
pIC50

>  <experimental_value>
8.20

$$$$
>  <compound>
COC(=O)N1CCN(C(=O)c2ccnc(CN3C(=N)NC(c4ccc(F)cc4)(c4ccc(F)cc4)C3=O)c2)CC1

>  <measured_property>
pIC50

>  <experimental_value>
7.23

$$$$

====

pIC50: −log10 of the molar value.
This document collects pIC50 values reported for UniProt:P04585.
measured_property: pIC50

>  <compound>
Cc1cc2c(cn1)CN(C(=O)c1cccc(CN3C(=N)NC(c4ccccc4)(c4ccccc4)C3=O)c1)C2

>  <measured_property>
pIC50

>  <experimental_value>
8.01

$$$$
>  <compound>
CC(C)CCC1(c2cccc(F)c2)NC(=N)N(Cc2cccc(C(=O)N3Cc4ccccc4C3)c2)C1=O (centres unmarked)

>  <measured_property>
pIC50

>  <experimental_value>
7.57

$$$$
>  <compound>
N=C1NC(c2ccc(F)cc2)(c2ccc(F)cc2)C(=O)N1Cc1cncc(C(=O)N2CCC(n3c(=O)[nH]c4ccccc43)CC2)c1

>  <measured_property>
pIC50

>  <experimental_value>
7.21

$$$$
>  <compound>
CC(C)CC1(c2ccccc2)NC(=N)N(Cc2ccc(C(F)(F)F)c(C(=O)N3Cc4cncnc4C3)c2)C1=O (centres unmarked)

>  <measured_property>
pIC50

>  <experimental_value>
8.26

$$$$
>  <compound>
N=C1NC(CCC2CC2)(c2ccc(-c3cccnc3)cc2)C(=O)N1Cc1ccc(C(F)(F)F)c(C(=O)N2Cc3nccnc3C2)c1 (centres unmarked)

>  <measured_property>
pIC50

>  <experimental_value>
7.98

$$$$
>  <compound>
COC(=O)N1CCN(C(=O)c2cccc(CN3C(=N)NC(c4ccc(F)cc4)(c4ccc(F)cc4)C3=O)c2)CC1

>  <measured_property>
pIC50

>  <experimental_value>
7.19

$$$$
>  <compound>
N=C1N[C@](CCCC(F)(F)F)(c2ccc(F)cc2)C(=O)N1Cc1ccc(C(F)(F)F)c(C(=O)N2Cc3cnc(-c4ccc5cnccc5c4)nc3C2)c1

>  <measured_property>
pIC50

>  <experimental_value>
8.22

$$$$
>  <compound>
N=C1NC(c2ccc(F)cc2)(c2ccc(F)cc2)C(=O)N1Cc1cc(C(=O)N2Cc3ccccc3C2)ccn1

>  <measured_property>
pIC50

>  <experimental_value>
7.72

$$$$
>  <compound>
CC(C)CC1(c2ccccc2)NC(=N)N(Cc2cccc(C(=O)N3CCN(c4ccccn4)CC3)c2)C1=O (centres unmarked)

>  <measured_property>
pIC50

>  <experimental_value>
7.25

$$$$
>  <compound>
CC(C)CC1(c2ccccc2)NC(=N)N(Cc2ccc(C(F)(F)F)c(C(=O)N3CCC3)c2)C1=O (centres unmarked)

>  <measured_property>
pIC50

>  <experimental_value>
7.10

$$$$
>  <compound>
N=C1N[C@](CCCC(F)(F)F)(c2ccc(F)cc2)C(=O)N1Cc1ccc(C(F)(F)F)c(C(=O)N2Cc3cnc(-c4ccc(F)cc4)nc3C2)c1

>  <measured_property>
pIC50

>  <experimental_value>
7.69

$$$$
>  <compound>
N=C1NC(c2ccc(F)cc2)(c2ccc(F)cc2)C(=O)N1Cc1cccc(C(=O)N2CCC(n3c(=O)[nH]c4ccc(F)nc43)CC2)c1

>  <measured_property>
pIC50

>  <experimental_value>
7.53

$$$$
>  <compound>
N=C1NC(c2ccccc2)(c2ccccc2)C(=O)N1Cc1ccc(Cl)c(C(=O)N2Cc3nccnc3C2)c1

>  <measured_property>
pIC50

>  <experimental_value>
8.87

$$$$
>  <compound>
C[C@@H](c1cccc(C(=O)N2Cc3ccccc3C2)c1)N1C(=N)NC(c2ccccc2)(c2ccccc2)C1=O

>  <measured_property>
pIC50

>  <experimental_value>
7.17

$$$$
>  <compound>
COc1ccc2c(c1)CCN(C(=O)c1cc(CN3C(=N)NC(CCC(C)C)(c4ccccc4)C3=O)ccc1C(F)(F)F)CC2 (centres unmarked)

>  <measured_property>
pIC50

>  <experimental_value>
7.99

$$$$
>  <compound>
N=C1N[C@](CCCC(F)(F)F)(c2ccc(F)cc2)C(=O)N1Cc1ccc(C(F)(F)F)c(C(=O)N2Cc3cnc(-c4cnn(CCN5CCOCC5)c4)nc3C2)c1

>  <measured_property>
pIC50

>  <experimental_value>
8.49

$$$$
>  <compound>
N=C1N[C@](CCCC(F)(F)F)(c2ccc(F)cc2)C(=O)N1Cc1ccc(C(F)(F)F)c(C(=O)N2Cc3cnc(-c4cncnc4)nc3C2)c1

>  <measured_property>
pIC50

>  <experimental_value>
8.27

$$$$
>  <compound>
CC(C)CCC1(c2ccccc2)NC(=N)N(Cc2cccc(C(=O)N3Cc4nccnc4C3)c2)C1=O (centres unmarked) [Compound 193]

>  <measured_property>
pIC50

>  <experimental_value>
8.31

$$$$
>  <compound>
CS(=O)(=O)N1CCN(C(=O)c2cc(CN3C(=N)N[C@](CCCC(F)(F)F)(c4ccc(F)cc4)C3=O)ccc2C(F)(F)F)CC1

>  <measured_property>
pIC50

>  <experimental_value>
7.76

$$$$
>  <compound>
N=C1N[C@](CCCC(F)(F)F)(c2ccc(F)cc2)C(=O)N1Cc1ccc(C(F)(F)F)c(C(=O)N2Cc3cnc(-c4ccsc4)nc3C2)c1

>  <measured_property>
pIC50

>  <experimental_value>
8.16

$$$$
>  <compound>
N=C1NC(c2ccc(F)cc2)(c2ccc(F)cc2)C(=O)N1Cc1cccc(C(=O)N2CCN(C(=O)c3ccco3)CC2)c1

>  <measured_property>
pIC50

>  <experimental_value>
7.58

$$$$
>  <compound>
N=C1N[C@](CCC2CC2)(c2ccc(F)cc2)C(=O)N1[C@@H]1CCCc2ccc(C(=O)N3Cc4nccnc4C3)cc21

>  <measured_property>
pIC50

>  <experimental_value>
7.15

$$$$
>  <compound>
CCCC1(c2ccccc2)NC(=N)N(Cc2cccc(C(=O)N3Cc4nccnc4C3)c2)C1=O (centres unmarked)

>  <measured_property>
pIC50

>  <experimental_value>
6.74

$$$$

====

What follows is a collection of IC50 values obtained with wild-type HIV-1 protease (Human immunodeficiency virus type 1 group M subtype B).

>  <molecule>
C[C@H](c1cccc(C(=O)N2Cc3nccnc3C2)c1)N1C(=N)NC(c2ccc(F)cc2)(c2ccc(F)cc2)C1=O

>  <IC50>
3.24 nM

$$$$
>  <molecule>
CC(C)CCC1(c2ccccc2)NC(=N)N(Cc2ccc(C(F)(F)F)c(C(=O)N3Cc4nccnc4C3)c2)C1=O (stereo not shown)

>  <IC50>
6.62 nM

$$$$
>  <molecule>
N=C1NC(c2ccccc2)(c2ccccc2)C(=O)N1Cc1cccc(C(=O)N2Cc3cc(Cl)c(Cl)cc3C2)c1

>  <IC50>
27.9 nM

$$$$
>  <molecule>
CCOC(=O)NC1CCN(C(=O)c2cc(F)cc(CN3C(=N)NC(c4ccccc4)(c4ccccc4)C3=O)c2)CC1

>  <IC50>
81.4 nM

$$$$
>  <molecule>
CCOC(=O)c1cn2c(n1)CN(C(=O)c1cccc(CN3C(=N)NC(c4ccccc4)(c4ccccc4)C3=O)c1)CC2

>  <IC50>
17.1 nM

$$$$
>  <molecule>
CCC(c1cccc(C(=O)N2Cc3ccccc3C2)c1)N1C(=N)NC(c2ccccc2)(c2ccccc2)C1=O (stereo not shown)

>  <IC50>
11.9 nM

$$$$
>  <molecule>
N=C1NC(c2ccccc2)(c2ccccc2)C(=O)N1Cc1cccc(C(=O)N2CCn3c(Cc4ccccc4)cnc3C2)c1

>  <IC50>
72 nM

$$$$
>  <molecule>
N=C1NC(c2ccc(F)cc2)(c2cccc(Br)c2)C(=O)N1Cc1cccc(C(=O)N2Cc3[nH]nc(C(F)(F)F)c3C2)c1 (stereo not shown)

>  <IC50>
9.49 nM

$$$$
>  <molecule>
CCOC(=O)c1nc2n(c1Cl)CCN(C(=O)c1cccc(CN3C(=N)NC(c4ccccc4)(c4ccccc4)C3=O)c1)C2 [Compound 209]

>  <IC50>
8.83 nM

$$$$
>  <molecule>
CN1CCN(c2cncc(-c3ncc4c(n3)CN(C(=O)c3cc(CN5C(=N)N[C@](CCCC(F)(F)F)(c6ccc(F)cc6)C5=O)ccc3C(F)(F)F)C4)c2)CC1

>  <IC50>
2.59 nM

$$$$
>  <molecule>
CCOC(=O)NC1CCN(C(=O)c2cccc(CN3C(=N)NC(c4ccccc4)(c4ccccc4)C3=O)c2)CC1

>  <IC50>
89.8 nM

$$$$
>  <molecule>
COc1ccc(CN2C(=N)NC(c3ccc(Cl)cc3)(c3ccc(Cl)cc3)C2=O)cc1C(=O)N1Cc2nccnc2C1

>  <IC50>
31.4 nM

$$$$
>  <molecule>
N=C1NC(c2ccc(F)cc2)(c2ccc(F)cc2)C(=O)N1Cc1ccc(C(F)(F)F)c(C(=O)N2CCCC2)c1

>  <IC50>
78.8 nM

$$$$

Where these numbers come from: patent US20200069691A1
